- target-system: 4-galactosyl-N-acetylglucosaminide 3-alpha-L-fucosyltransferase FUT5 (Homo sapiens, UniProt Q11128)
- Sequence (Q11128 whole entry): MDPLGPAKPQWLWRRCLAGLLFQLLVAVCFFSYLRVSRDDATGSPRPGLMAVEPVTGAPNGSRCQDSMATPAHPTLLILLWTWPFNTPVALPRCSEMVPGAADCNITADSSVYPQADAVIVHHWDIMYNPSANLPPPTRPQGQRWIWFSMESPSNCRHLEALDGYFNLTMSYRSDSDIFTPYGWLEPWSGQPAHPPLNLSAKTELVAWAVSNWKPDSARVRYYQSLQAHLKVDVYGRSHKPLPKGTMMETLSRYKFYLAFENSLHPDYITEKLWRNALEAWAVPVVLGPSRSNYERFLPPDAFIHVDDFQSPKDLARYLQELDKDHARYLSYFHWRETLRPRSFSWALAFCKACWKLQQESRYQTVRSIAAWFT
- test: Non-competitive inhibition of FucT-5 (unknown origin) using LacNAc as acceptor substrate
endpoint-label: Ki (µM)
Give the value, in units of µM, as a plain number.

# input If you can, please state the reported Ki value of C[C@@H]1CC[C@H]2C(C)(C)[C@H](O)CC[C@]2(C)[C@@]12Cc1c(O)cc(C=O)c(C=O)c1O2 .
# output 9.7

// provenance: ChEMBL document CHEMBL3596159
